measurement protocol: Antibacterial activity against five Gram-negative bacteria
Type: functional
measurement parameters: read-out: MIC
// MIC lookup, one value per entry
observation type: MIC (µg/mL)

# molecule, qual, quantitative readout
rows = [
    ("CCNCC1CCN(c2c(F)cc3c(=O)c(C(=O)O)cn(CC)c3c2F)C1 (stereo not given) [MERAFLOXACIN]", "=", 0.2),
    ("CC1COc2c(N3CCN(C)CC3)c(F)cc3c(=O)c(C(=O)O)cn1c23 (stereo not given) [OFLOXACIN]", "=", 0.2),
    ("CSc1c(N2CCC(N)C2)c(F)cc2c(=O)c(C(=O)O)cn(C3CC3)c12 (stereo not given)", "=", 0.2),
    ("NC1CCN(c2c(F)cc3c(=O)c(C(=O)O)cn(C4CC4)c3c2F)CC1", "=", 0.2),
    ("CC1CN(c2c(F)cc3c(=O)c(C(=O)O)cn(C4CC4)c3c2F)CC(C)N1 (stereo not given)", "=", 0.05),
    ("NC1CCN(c2c(F)c(O)c3c(=O)c(C(=O)O)cn(C4CC4)c3c2F)C1 (stereo not given)", "=", 0.03),
    ("COc1c(N2CCNCC2)c(F)cc2c(=O)c(C(=O)O)cn(C3CC3)c12", "=", 0.07),
    ("NC1CCN(c2nc3c(cc2F)c(=O)c(C(=O)O)cn3C2CC2)CC1", "=", 0.23),
    ("CSc1c(F)c(N2CCC(N)C2)cc2c1c(=O)c(C(=O)O)cn2C1CC1 (stereo not given)", ">", 1.58),
    ("O=C(O)c1cn(C2CC2)c2cc(N3CCCC3)c(F)cc2c1=O", "=", 0.2),
    ("CCNCC1CCN(c2nc3c(cc2F)c(=O)c(C(=O)O)cn3C2CC2)C1 (stereo not given)", "=", 0.21),
    ("CC1(CN)CCN(c2c(F)cc3c(=O)c(C(=O)O)cn(C4CC4)c3c2C(F)(F)F)C1 (stereo not given)", "=", 1),
    ("NC1CCN(c2nc3c(cc2F)c(=O)c(C(=O)O)cn3C2CC2)C1 (stereo not given)", "=", 0.03),
    ("CCNCC1CCN(c2cc3c(cc2F)c(=O)c(C(=O)O)cn3-c2ccc(F)cc2F)C1 (stereo in doubt; 36b)", "=", 0.8),
    ("COc1c(N2CCC(N)C2)c(F)cc2c(=O)c(C(=O)O)cn(-c3ccc(F)cc3F)c12 (stereo not given)", "=", 0.35),
]

Attribution: ChEMBL document CHEMBL1125556
